Origin of the recorded values: PubChem BioAssay (NCI)

- Tested on: MALME-3M melanoma
- EXPERIMENTAL PROTOCOL: NCI tumour cell line growth inhibition, 48 h; in the data active = GI50 below about 0.43 µM; inactive = the rest
Output constraint: value belongs to active, inactive

Ask | Entry COc1ccncc1C#Cc1cncc(C(=O)Nc2ccc(CN3CCN(C)CC3)c(C(F)(F)F)c2)c1 : call = ?
Reply | inactive

Ask | Which result was noted for this molecule in the test: N=c1ccn2c(n1)OC1C(O)C(CO)OC12 (stereo unspecified)
Reply | inactive

Ask | // return assay outcome for Ic1ccc(-n2nnnc2-c2cnoc2-c2ccccc2)cc1
Reply | inactive

Ask | Please state the recorded outcome for this molecule: CCOc1ccc2nc(S/C(=C/C=C(C#N)C#N)c3ccc(C)cc3)sc2c1
Reply | inactive

Ask | Hi, do you know how C=CCCCCCCCCCCC1(O)C=CC2=[N+](CCCCCN=C(N)N)CCCN21 (stereo unspecified) came out in this test?
Reply | inactive

Ask | Which outcome was entered for the molecule NS(=O)(=O)c1ccc(N(/C=C/C(=O)C(F)(F)F)CC(=O)c2ccc(Cl)cc2)cc1 in this test?
Reply | inactive

Ask | # lookup: test call for Cc1nc2cnc(N)c(C#Cc3cncc(C(=O)Nc4ccc(CN5CCN(C)CC5)c(C(F)(F)F)c4)c3)c2nc1C
Reply | active

Ask | Any idea what this test logged for CCN(CC)c1nc(-c2ccc(Cl)cc2Cl)nc2ccccc12 ?
Reply | inactive

Ask | Answer briefly: the call reported for C=CC(=O)N1CCC(C2CCNc3c(C(N)=O)c(-c4ccc(Oc5ccccc5)cc4)nn32)CC1 (stereo unspecified) in this assay.
Reply | inactive

Ask | What classification did Cc1ccc(Cl)cc1Nc1nc(C(F)(F)F)ccc1C(=O)N1CCN(c2cccc(Cl)c2)CC1 end up with in this test?
Reply | inactive

Ask | Test call for this molecule, please: Cc1csc(Nc2nc(-c3cccc(Br)c3)nc(C(Cl)(Cl)Cl)n2)n1
Reply | inactive

* * *

- Tested on: NCI-H226 lung
- EXPERIMENTAL PROTOCOL: NCI tumour cell line growth inhibition, 48 h
Kindly state TGI for each of the entries shown.

Ask | Entry CCOC(=O)c1csc(NC(=O)CN2CCN(C)CC2)n1 : reported TGI = ?
Reply | > 100 µM

Ask | # input compound: CCCC(O)C(NC(=O)CCl)C(=O)O (stereo unspecified) ; wanted: its TGI
Reply | > 100 µM

Ask | Could you tell me which TGI is on file for Cc1ccc(C(=O)N/N=C(\N=Nc2ccccc2[N+](=O)[O-])c2ccc(N(C)C)cc2)cc1 ?
Reply | > 100 µM

Ask | Could you tell me which TGI is on file for COc1ccc(N2C(=O)CS(=O)(=O)C2c2cccc(Oc3ccccc3)c2)cc1 (stereo unspecified) ?
Reply | 52.6 µM

Ask | Look up TGI: CCOC(=O)C(=Cc1cccc(Cl)c1)C(=O)OCC
Reply | 6.18 µM

Ask | Entry under review: N#CC1(C#N)C2CCCCC23OC(=N)C1(C#N)C(c1ccccc1)O3 (stereo unspecified) . Reported TGI?
Reply | > 100 µM

* * *

- Tested on: M14 melanoma
- EXPERIMENTAL PROTOCOL: NCI tumour cell line growth inhibition, 48 h
The threshold is inclusive: TGI of exactly 10 µM counts as true; values below receive false.

Ask | Please check the record COc1ccccc1N1CCN(CCCn2c(=O)c3c(OC)nc(C)cc3c(=O)n2-c2ccccc2)CC1 and state if its TGI is at or above 10 µM.
Reply | true

Ask | Kindly determine if TGI recorded for CCN1CCN=c2c3cc(OC)ccc3n3cnc4ccc1c2c43 is above or exactly 10 µM.
Reply | false

Ask | Exam item: decide whether the reported TGI for O=C(CC(=O)c1ccccc1)CC(O)(c1ccccc1)c1ccccc1 is at least 10 µM.
Reply | true

Ask | Quick check, TGI >= 10 µM? CCN(CC)CCOc1ccc(/C=C2\CC3C4CC=C5C[C@@H](O)CC[C@]5(C)C4CC[C@]3(C)C2=O)cc1OC (stereo not given in full)
Reply | false

Ask | Please indicate if the recorded TGI for CCN(CC)c1nc(-c2ccc(Cl)cc2Cl)nc2ccccc12 meets or exceeds 10 µM.
Reply | true

Ask | Form field: TGI at least 10 µM? Entry: Cc1cn(CCCCCOC(=O)NC(CCCN=C(N)N)C(=O)O)c(=O)[nH]c1=O (stereo not given)
Reply | true

Ask | // inclusive: TGI at least 10 µM? input: Oc1cc(O)c2c(c1)OC(c1ccc(O)c(O)c1)C(OC1(c3cc(O)c(O)c(O)c3)Oc3cc(O)cc(O)c3C(O)C1O)C2 (stereo not given)
Reply | true

Ask | Please tell me: is the molecule Cn1cc(C2=C(c3cn(C)c4cc(C(N)=O)ccc34)C(=O)NC2=O)c2ccccc21 at or over 10 µM in terms of TGI?
Reply | true

Ask | Hi team, for COc1ccc(C(=O)/C=C/c2ccncc2)cc1OC , is the recorded TGI at or above 10 µM?
Reply | true

Ask | Dear colleague, could you confirm whether CCc1nc2ccc(N=NN(C)C)cc2[nH]1 has TGI at or above 10 µM?
Reply | true

* * *

Please respond with reported TGI for every item in the list.
- System: OVCAR-4 ovarian
- EXPERIMENTAL PROTOCOL: NCI tumour cell line growth inhibition, 48 h

Ask | Look up TGI for this compound: O=C(O)[C@H](NS(=O)(=O)c1ccc2ccccc2c1)c1ccccc1
Reply | > 100 µM

Ask | Consider the compound COc1ccc(C(OC(C)=O)C2C(=C(C#N)C#N)c3ccccc3C2=C(C#N)C#N)cc1 (configuration not stated) and give its measured TGI.
Reply | > 100 µM

Ask | Fill blank: measured TGI of the compound CCN1CCN=c2c3cc(OC)ccc3n3cnc4ccc1c2c43 is ____.
Reply | 1.86 µM

Ask | Request the reported TGI associated with COc1cccc2c1C(=O)c1c(O)c3c(c(O)c1C2=O)CC(O)(/C(C)=N/NC(=O)CCC(=O)N/N=C(\C)C1(O)Cc2c(O)c4c(c(O)c2C(OC2CC(N)C(O)C(C)O2)C1)C(=O)c1c(OC)cccc1C4=O)CC3OC1CC(N)C(O)C(C)O1 (configuration not stated)
Reply | > 21.4 µM

Ask | GET /values?readout=TGI&item= Cc1ccc(-c2cc(-c3ccc(Cl)cc3)nc(/N=C3\C(=O)N(CN4CCOCC4)c4ccc(Cl)cc43)n2)cc1
Reply | > 100 µM

Ask | Name the recorded TGI for Cn1c(N)c2c3c(sc2nc1=O)CCCC3 .
Reply | > 75 µM

Ask | For CC(C)=CCc1cc(O)cc2c1OC(C=C(C)C)C1=C2C(=O)C2=C(NCCS2(=O)=O)C1=O (configuration not stated) , what is its reported TGI?
Reply | 3.06 µM

* * *

- Test system: HS 578T breast
- EXPERIMENTAL PROTOCOL: NCI tumour cell line growth inhibition, 48 h
Exercise: state measured log10 TGI for each of the compounds provided.
log10 TGI, µM

Ask | I am curious: what log10 TGI value has been reported for CCN1CCN=c2c3cc(OC)ccc3n3cnc4ccc1c2c43 ?
Reply | -0.06

Ask | If you can, please state the reported log10 TGI value of C=CCCCCCCCCCCC1(O)C=CC2=[N+](CCCCCN=C(N)N)CCCN21 (stereo unspecified) .
Reply | 1.12

Ask | Quick check: log10 TGI of O=c1c2c(-c3ccccc3)onc2n(-c2ccccc2)c(=O)n1-c1ccccc1 ?
Reply | 1.95

Ask | Look up log10 TGI for this compound: COc1ccc(C(=O)/C=C/c2ccncc2)cc1OC
Reply | 1.56

Ask | Which log10 TGI reading was recorded for the compound CC1(C)OC(=C(C#N)C#N)C(C#N)=C1/C=C/c1ccncc1 ?
Reply | 1.25

Ask | Need log10 TGI of CC(C)=CCc1cc(O)cc2c1OC(C=C(C)C)C1=C2C(=O)C2=C(NCCS2(=O)=O)C1=O (stereo unspecified) , thanks.
Reply | 1.08

Ask | For the compound shown here, CC1(C)OCCn2c1nc1c(N3CCOCC3)nc(-c3cnc(N)nc3)nc12 , give the reported log10 TGI.
Reply | -0.01

* * *

- Tested on: MCF7 breast
- EXPERIMENTAL PROTOCOL: NCI tumour cell line growth inhibition, 48 h; in the data active means GI50 below about 0.43 µM; inactive means the rest
Outcome field: choose from active, inactive

Ask | Given CCN(CC)CCOc1ccc(/C=C2\CC3C4CC=C5C[C@@H](O)CC[C@]5(C)C4CC[C@]3(C)C2=O)cc1OC (some centres undefined) , state the outcome it received in this test.
Reply | inactive

Ask | Identify the outcome logged in this assay for the compound shown: CCCn1c(N)c(C(=O)N/N=C(/C)c2cc3cccc(OC)c3o2)sc1=S
Reply | inactive

Ask | Check the results log: what was the call for Cc1cn2c(/C=C3\C(=O)Nc4ccc(O)cc43)c(-c3ccc(Cl)cc3)nc2s1 ?
Reply | inactive

Ask | # fetch the recorded call for Cc1ccc(Cl)cc1Nc1nc(C(F)(F)F)ccc1C(=O)N1CCN(c2cccc(Cl)c2)CC1 here
Reply | inactive

Ask | In this assay, the call recorded for CC(C)=CCc1cc(O)cc2c1OC(C=C(C)C)C1=C2C(=O)C2=C(NCCS2(=O)=O)C1=O (centres undefined) was what?
Reply | inactive

Ask | In this assay, the call recorded for CCCCCCNC(=O)c1nc(-c2ccccc2)oc1Cc1ccc(OP(=O)(O)O)cc1 was what?
Reply | inactive

Ask | Tell me the recorded outcome of this test for C=CC(=O)N1CCC(C2CCNc3c(C(N)=O)c(-c4ccc(Oc5ccccc5)cc4)nn32)CC1 (centres undefined) .
Reply | inactive

Ask | Please share the test call associated with Cn1cnc([N+](=O)[O-])c1S(=O)(=O)Oc1ccccc1 .
Reply | inactive

Ask | Outcome? CC12CCC3C(CCC4=CC(O)CCC43C=O)C1(O)CCC2c1ccc(=O)oc1 (centres undefined)
Reply | active
